target-system: 细胞膜表面表达的人CD47蛋白 (human, UniProt Q08722 19-323)
Sequence (Q08722 19-323): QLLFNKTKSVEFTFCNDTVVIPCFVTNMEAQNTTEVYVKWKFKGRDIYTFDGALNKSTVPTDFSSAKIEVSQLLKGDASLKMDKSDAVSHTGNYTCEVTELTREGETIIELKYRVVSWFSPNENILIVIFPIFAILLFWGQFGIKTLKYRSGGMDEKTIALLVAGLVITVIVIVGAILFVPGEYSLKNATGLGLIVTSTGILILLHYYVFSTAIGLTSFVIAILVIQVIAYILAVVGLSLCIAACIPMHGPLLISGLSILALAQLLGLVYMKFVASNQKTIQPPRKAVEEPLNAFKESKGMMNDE
test-method-notes: cell-based or functional assay
assay-readout: 促吞噬曲线的EC50值 (ATP法, C57BL小鼠腹腔原代巨噬细胞对Raji细胞的吞噬)

- 抗人CD47单克隆抗体A2 (antibody, V domains shown) VH: EVQVQQSGPELVKPGASVKISCKASGYSFTGYFMNWVKQSHGKSLEWIGRINPYNGDTFYNQKFKGKATLTVDKSSSTAHMELLSLTSEDSAVYYCGRGGYGGMDYWGQGTSVTVSS VL: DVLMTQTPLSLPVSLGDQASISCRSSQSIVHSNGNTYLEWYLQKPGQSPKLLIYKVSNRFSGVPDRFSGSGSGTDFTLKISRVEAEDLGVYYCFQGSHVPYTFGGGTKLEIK: 0.00462 微克/毫升
- 抗人CD47单克隆抗体A6 (antibody, V domains shown) VH: QVQLQQSGAELVRPGASVTLSCKASGYSFTDSEMHWVKQTPVYGLEWTGVIDPETGNSAYNQKFKGKATLTADKSSNTAYMELRSLTSEDSAVYYCTRGGVFGYPFDYWGQGTTLTVSS VL: ENVLTQSPAIMAASLGQKVTMTCSATSSVRSSYLHWYQQKSGASPKPLIHRTSNLASGVPARFSGSGSGTSYSLTISSVEAEDDATYYCQQWRGYPYTFGGGTKLEIK: 0.00568 微克/毫升
- 抗人CD47单克隆抗体A1 (antibody, V domains shown) VH: EFQLQQSGPELVKPGASVKMSCKASGYTFTNYVLHWVKQKPGQGLEWIGYFNPYNDDSKYNEKFKGKATLTSDKSSSTAYMELSSLTSEDSAVYYCARGGYYSMDYWGQGTTVTVSS VL: DVMTQTPLSLPVSLGDQASISCRASQSLAHSNGYTYLQWYLQKPGQSPKLLIYKVSKRFSGVPDRFSGSGSGTDFTLKISRVEAEDLGVYFCSQSTHVPYTFGQGTKVEIK: 0.00439 微克/毫升
- 抗人CD47单克隆抗体A3 (antibody, V domains shown) VH: QVQLQQPGAELVRPGASVKLSCKASGHTFTNYWMNWIKQRPEQGLEWIGNIDPYDSETHYNQKFKDKAILTVGKSSSTAYMQLSSLTSEDSAVYYCAIWRGYALDYWGQGTSVTVSS VL: CDVQITQSPSYLAASPGETITINCRASKSISKFLAWYQEKPGKTNNLLIYSGSTLQSGIPSRFSGSGSGTDFTLTISSLEPEDFAMYYCQQHNEYPWTFGGGTKLEIK: 0.00391 微克/毫升
